- Test system: SN12C renal
- assay: NCI tumour cell line growth inhibition, 48 h; in the data active = GI50 below about 0.43 µM; inactive = the rest
Field 'call' accepts active, inactive

Example results:
Kindly provide the recorded test outcome for the following compound: CC[n+]1c(/C=C/C=C2\N(C)c3ccccc3C2(C)C)sc2ccccc21
inactive

Per the assay record, what outcome was assigned to CN(CC(=O)N(Cc1ccc(C2CCCCC2)cc1)c1ccc(C(=O)O)cc1)S(=O)(=O)c1c(F)c(F)c(F)c(F)c1F ?
inactive

What was the test verdict on COc1ccc(N=N/C(C(=O)C(F)(F)F)=C(\O)c2ccc(Cl)cc2)cc1 ?
inactive

How did this test come out for CCC(=O)c1c(C(F)(F)F)n([O-])c2cc(F)c(F)cc2[n+]1=O ?
inactive

Per the assay record, what outcome was assigned to O=C1NC(=NCCCc2ccccc2)S/C1=C\c1ccc2ncccc2c1 ?
inactive

Next:
Lab log entry: C=CC(=O)N1CC2(CC(n3nc(-c4ccc5c(cnn5C)c4)c(-c4c(Cl)c(C)cc5[nH]ncc45)c3C)C2)C1 — outcome as called in the assay?
inactive

Which outcome was assigned to Cn1cc(C2=C(c3cn(CCCCCSC(=N)N)c4ccccc34)C(=O)NC2=O)c2ccccc21 in this test?
inactive

Just curious, what result did COc1cc2cc(Oc3ccc(NC(=O)Nc4ccc(Cl)c(Cl)c4)cc3)c(C)nc2cc1OC get here?
inactive

Name the outcome recorded for Oc1[nH]c2ccccc2c1/C=c1/cc2c(c(-c3ccc(F)cc3)n1)=Nc1ccccc1-2 in the assay.
inactive

Please share the test call associated with CO[C@H]1C[C@@H]2CC[C@@H](C)[C@@](O)(O2)C(=O)C(=O)N2CCCC[C@H]2C(=O)O[C@H]([C@H](C)C[C@@H]2CC[C@@H](OCCO)[C@H](OC)C2)CC(=O)[C@H](C)C=C(C)[C@@H](O)[C@@H](OC)C(=O)[C@H](C)C[C@H](C)/C=C/C=C/C=C1C .
inactive

---

Listing: TGI of selected compounds
- System: NCI-H226 lung
- assay: NCI tumour cell line growth inhibition, 48 h

Just so you know, measured TGI for C#CCOc1ccc2ncnc(Nc3ccc(NC(=O)C=C)cc3)c2c1 came out at > 100 µM

Note to self: TGI recorded for C=CCOCn1cc(C)c(=O)[nH]c1=O was > 100 µM

Query O=C(NNc1nc(-c2ccccc2)cs1)C(F)(F)F yields TGI of > 100 µM

compound CN1CSC(=S)N(Cc2ccccc2)C1 , TGI observed: > 100 µM

Kindly note the recorded TGI for Brc1ccc2ns[s+]c2c1 , which is > 100 µM

Per the records, this compound ( Cc1ccc2c(c1)C(=O)C(C1OC(=O)c3ccccc31)C2 (centres undefined) ) has TGI equal to > 100 µM

Attention now turns to another entry.
Looking up CCOc1cc(NC(C)=O)ccc1C(=O)NN1C(=O)CSC1c1ccccc1 (centres undefined) , I found its TGI recorded as > 100 µM

---

- Test system: HS 578T breast
- assay: NCI tumour cell line growth inhibition, 48 h
The entries below are paired with their reported TGI.

// below: answered compounds
Entry NC(Cc1ccc(S(=O)(=O)O)cc1)C(=O)NC(Cc1ccc(S(=O)(=O)O)cc1)C(=O)O (stereo not drawn) ; TGI = > 100 µM

TGI reported for this compound O=C1Nc2ccccc2/C1=c1\[nH]c(=O)/c(=C\c2ccc(OCc3ccccc3)cn2)[nH]c1=O : 70.1 µM

Turning now to a further compound:
The compound listed as COc1ccc2c(OCc3nnc4ccc(-c5ccccc5)nn34)ccnc2c1 shows TGI equal to > 100 µM
